Overview of recorded T/C for various compounds
# Test system: L1210 leukemia ip in BDF1 mice, survival T/C
# Assay name: NCI In Vivo Anticancer Drug Screen. Data for tumor model L1210 Leukemia (intraperitoneal) in B6D2F1 (BDF1) mice
# Test settings: endpoint: mean survival time; dose: 12.5 mg/kg/injection; schedule: Q01DX009 (ip); vehicle: Klucel (hydroxypropylcellulose) (HPC); higher = longer survival
Inconclusive results and toxic doses are left out.
Quantity kind: T/C

COc1ccc(C2c3cc4c(c(OC)c3CC3OCC(=O)C32)OCO4)cc1OC (stereo not given) :: 110 % of control
CCC(C)c1cc(CN(C)C)cc(C(C)CC)c1O (stereo not given) :: 105 % of control
c1ccc(N/N=C(/C[n+]2cc3ccccc3c3ccccc32)c2ccccc2)cc1 :: 100 % of control
CCNc1ncnc2c1c(C(N)=S)cn2C1OC(CO)C(O)C1O (stereo not given) :: 109 % of control
COC(=O)CC1(O)C=CC(=O)C=C1 :: 92 % of control

###

# Tested on: L1210 leukemia ip in BDF1 mice, survival T/C
# Assay name: NCI In Vivo Anticancer Drug Screen. Data for tumor model L1210 Leukemia (intraperitoneal) in B6D2F1 (BDF1) mice
# Test settings: endpoint: mean survival time; dose: 400.0 mg/kg/injection; schedule: Q04DX003 (ip); vehicle: saline with Tween-80; higher = longer survival
Inconclusive results and toxic doses are left out.
Quantity kind: T/C

O=C(SCCNC(=O)N1CCCCC1)Sc1ccccc1 :: 114 % of control
CCOC(=O)C1CC(C(=O)OCC)C(=O)C1=O (stereo not drawn) :: 86 % of control
CCCCCCCCCCCCCCCCCCOC(C)OCCCCCCCCCCCCCCCCCC :: 87 % of control

###

# T/C listing for each entry below
# Tested on: L1210 leukemia ip in BDF1 mice, survival T/C
# Assay name: NCI In Vivo Anticancer Drug Screen. Data for tumor model L1210 Leukemia (intraperitoneal) in B6D2F1 (BDF1) mice
# Test settings: endpoint: mean survival time; dose: 400.0 mg/kg/injection; schedule: Q04DX003 (ip); vehicle: Klucel (hydroxypropylcellulose) (HPC); higher = longer survival
Inconclusive results and toxic doses are left out.
Quantity kind: T/C

COc1cc2c(cc1OC)C(=O)CN(S(=O)(=O)c1ccc(C)cc1)CC2 :: 97 % of control
CCOC(=O)/C(=C\c1ccccn1)C(=O)c1cccnc1 :: 118 % of control
COC(=O)CCC(NC(=O)CCCNC(=O)OCc1ccccc1)C(=O)OC (configuration not stated) :: 86 % of control
CCOc1ccc(/C=N/NC(=O)c2ccccc2NC(=O)c2ccccc2Cl)cc1OC :: 92 % of control
Cc1ccc(C(C)(C#N)Nc2ccccc2)cc1 (configuration not stated) :: 105 % of control
O=C(COc1ccc(Cl)cc1)Nc1cc(Cl)ccc1Cl :: 90 % of control
C#CC(O)(c1ccccc1)c1ccc(N2CCOCC2)cc1 (configuration not stated) :: 96 % of control
Brc1ccc(C=C2c3ccccc3-c3ccccc32)cc1 :: 94 % of control
COc1cc2ccc3c(c2cc1OC)C(=O)CNC3C (configuration not stated) :: 101 % of control
O=C(C1CC2CCC1C2)C1CC2CCC1C2 (configuration not stated) :: 100 % of control
CCCCCCCCCCCC(=O)NC(=S)Nc1ccccc1C(F)(F)F :: 92 % of control
O=c1oc(-c2ccccc2)ccc1-c1ccccc1 :: 96 % of control
